Target: T1, CRBN, Q96SW2;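 further: pooled lentiviral library of zinc finger degron-EGFP fusions in mCherry-positive Jurkat cells, FACS-sorted after compound exposure, with degron abundance counted by next-generation sequencing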
T1 chain: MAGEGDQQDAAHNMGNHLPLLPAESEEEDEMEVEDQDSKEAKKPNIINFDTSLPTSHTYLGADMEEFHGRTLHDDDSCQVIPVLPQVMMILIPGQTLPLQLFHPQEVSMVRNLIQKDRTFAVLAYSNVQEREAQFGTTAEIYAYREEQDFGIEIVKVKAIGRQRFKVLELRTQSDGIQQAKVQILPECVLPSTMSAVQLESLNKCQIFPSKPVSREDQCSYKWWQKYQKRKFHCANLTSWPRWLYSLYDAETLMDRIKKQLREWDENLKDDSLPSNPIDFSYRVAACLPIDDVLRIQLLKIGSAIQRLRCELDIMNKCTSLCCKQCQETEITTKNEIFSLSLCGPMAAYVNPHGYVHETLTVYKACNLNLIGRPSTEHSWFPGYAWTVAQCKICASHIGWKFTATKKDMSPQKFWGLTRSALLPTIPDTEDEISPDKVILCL
Experiment: log2 fold change of degron read counts, EGFP-low vs EGFP+ sorted cells (limma voom), compound-induced degradation; higher = more compound-induced degradation of the degron-EGFP fusion; degrons are variants of IKZF1/3 zinc finger 2; compound dose not given here
Details: Jurkat; 18 h; compound: compound 19 (5-tert-butyl-thalidomide)
Over roughly 8,300 sequences, “log2 fold change of degron read counts, EGFP-low vs EGFP+ sorted cells (limma voom), compound-induced degradation” has its median near -1.1; the highest 2% begin near 3.2. For the sample, the highest values were picked, then their nearest neighbours and some sequences at random.
log2 fold change of degron read counts values by entry
Answer field: number only, no words.

[[record]]
seq_string = "FECNVCGAIFTQKGNLLRHIKL [46F_47E_49N_50V_52G_53A_54I_55F_67L_, Q9UKT9]"
value_measured = -2.34

[[record]]
seq_string = "FCCPVCGAMFTQKGNLLRHIKL [46F_47C_49P_50V_52G_53A_54M_55F_67L_, Q9UKT9]"
value_measured = 1.36

[[record]]
seq_string = "FKCDVCGAYFTQKGNLLRHIKL [46F_47K_49D_50V_52G_53A_54Y_55F_67L_, Q9UKT9]"
value_measured = -2.99

[[record]]
seq_string = "FVCEICGACFTQKGNLLRHIKL [46F_47V_49E_50I_52G_53A_54C_55F_67L_, Q9UKT9]"
value_measured = 0.542


Could you share which log2 fold change of degron read counts value was measured for FNCDICGAWFTQKGNLLRHIKL [46F_47N_49D_50I_52G_53A_54W_55F_67L_, Q9UKT9] ?
-1.24

Same question for FDCPQCGAMFTQKGNLLRHIKL [46F_47D_49P_50Q_52G_53A_54M_55F_67L_, Q9UKT9] please.
-2.55

Same question for FYCEQCGALFTQKGNLLRHIKL [46F_47Y_49E_50Q_52G_53A_54L_55F_67L_, Q9UKT9] please.
-0.0809

Same question for FGCDQCGARFTQKGNLLRHIKL [46F_47G_49D_50Q_52G_53A_54R_55F_67L_, Q9UKT9] please.
-1.28

Same question for FKCEICGACFTQKGNLLRHIKL [46F_47K_49E_50I_52G_53A_54C_55F_67L_, Q9UKT9] please.
-0.172
